- STUDY_SYSTEM: UniProt:P56470
- Sequence (P56470 whole entry): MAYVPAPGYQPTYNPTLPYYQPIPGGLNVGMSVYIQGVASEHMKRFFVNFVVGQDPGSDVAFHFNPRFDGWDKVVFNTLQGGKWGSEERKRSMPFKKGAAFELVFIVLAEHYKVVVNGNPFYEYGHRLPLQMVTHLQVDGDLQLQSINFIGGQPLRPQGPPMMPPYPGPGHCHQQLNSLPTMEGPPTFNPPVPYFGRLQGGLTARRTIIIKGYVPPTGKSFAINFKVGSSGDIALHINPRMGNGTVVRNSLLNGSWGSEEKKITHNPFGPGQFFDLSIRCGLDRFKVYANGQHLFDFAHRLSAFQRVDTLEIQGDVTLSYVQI
- ASSAY: Binding affinity at recombinant human N-terminal Galectin 4 expressed in Escherichia coli BL21 incubated for 5 mins by fluorescence anisotropy assay
- CONDITION: read-out: Kd
Assign pKd to each entry below.
Answers are plain numbers, as −log10 of the molar value.

MOL_SMILES	pKd
CO[C@@H]1O[C@H](CO)[C@H](O)[C@H](Nc2cccc(Cl)c2)[C@H]1O	2.74
COc1cccc(N[C@H]2[C@@H](O)[C@@H](CO)O[C@@H](OC)[C@@H]2O)c1	2.51
CO[C@@H]1O[C@H](CO)[C@H](O)[C@H](Nc2ccc(C)cc2)[C@H]1O	2.64

--- query ---
GET /value?item= "COc1ccc(N[C@H]2[C@@H](O)[C@@H](CO)O[C@@H](OC)[C@@H]2O)cc1" &field=pKd returns 2.92

###

- STUDY_SYSTEM: Galectin-8 (Homo sapiens, UniProt O00214)
- Sequence (O00214 whole entry): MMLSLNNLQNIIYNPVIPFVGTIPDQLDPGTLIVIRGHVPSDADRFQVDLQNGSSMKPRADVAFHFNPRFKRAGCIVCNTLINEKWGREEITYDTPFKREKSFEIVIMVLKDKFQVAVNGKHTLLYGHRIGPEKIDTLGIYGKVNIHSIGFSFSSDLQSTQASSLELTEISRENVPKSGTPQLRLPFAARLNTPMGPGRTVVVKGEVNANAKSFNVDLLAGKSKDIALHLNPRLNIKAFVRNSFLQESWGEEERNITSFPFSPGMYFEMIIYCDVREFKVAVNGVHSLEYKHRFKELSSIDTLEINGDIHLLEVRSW
- ASSAY: Binding affinity at recombinant human N-terminal Galectin 8 expressed in Escherichia coli BL21 incubated for 5 mins by fluorescence anisotropy assay
MEASUREMENT_LABEL: Kd

Below are worked cases with known answers.
MOL_SMILES	Kd
COc1cccc(N[C@H]2[C@@H](O)[C@@H](Sc3ccc(Cl)c(Cl)c3)O[C@H](CO)[C@@H]2O)c1	Not Active
CO[C@@H]1O[C@H](CO)[C@H](O)[C@H](Nc2ccc(C)cc2)[C@H]1O	Not Active
CO[C@@H]1O[C@H](CO)[C@H](O)[C@@H](Nc2cccc(Cl)c2)[C@H]1O	Not Active
CO[C@@H]1O[C@H](CO)[C@H](O)[C@@H](Nc2ccc(C)c(C)c2)[C@H]1O	Not Active
CO[C@@H]1O[C@H](CO)[C@H](O)[C@@H](Nc2cccc(C)c2)[C@H]1O	Not Active

For every listed record, write down its Kd.
1. CO[C@@H]1O[C@H](CO)[C@H](O)[C@@H](Nc2ccc(F)c(F)c2)[C@H]1O
2. CO[C@@H]1O[C@H](CO)[C@H](O)[C@@H](Nc2ccccc2)[C@H]1O

1. Not Active
2. Not Active

For every listed record, write down its Kd.
1. CO[C@@H]1O[C@H](CO)[C@H](O)[C@H](Nc2ccc(C)c(C)c2)[C@H]1O
2. COc1ccc(N[C@@H]2[C@@H](O)[C@@H](CO)O[C@@H](OC)[C@@H]2O)cc1
3. COc1ccc(N[C@@H]2[C@@H](O)[C@@H](Sc3ccc(Cl)c(Cl)c3)O[C@H](CO)[C@@H]2O)cc1

["Not Active", "Not Active", "Not Active"]

###

- STUDY_SYSTEM: UniProtKB P09382
- Sequence (P09382 whole entry): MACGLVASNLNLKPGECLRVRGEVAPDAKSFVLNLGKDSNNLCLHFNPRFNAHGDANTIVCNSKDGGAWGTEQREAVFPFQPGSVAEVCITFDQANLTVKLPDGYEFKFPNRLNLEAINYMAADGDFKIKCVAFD
- ASSAY: Binding affinity at recombinant human Galectin 1 expressed in Escherichia coli BL21 incubated for 5 mins by fluorescence anisotropy assay
- CONDITION: read-out: Kd
Criterion: Kd strictly under 1000 µM. Met: fulfilled. Not met: not fulfilled.

The following molecules have reported results that may help.
MOL_SMILES	CLASS_ASSIGNMENT
CO[C@@H]1O[C@H](CO)[C@H](O)[C@H](Nc2ccccc2)[C@H]1O	not fulfilled
CO[C@@H]1O[C@H](CO)[C@H](O)[C@H](Nc2ccc(C)cc2)[C@H]1O	fulfilled

Please look at the following molecule next.
Consider "CO[C@@H]1O[C@H](CO)[C@H](O)[C@H](Nc2ccc(C)c(C)c2)[C@H]1O" . Does its Kd lie strictly below 1000 µM? fulfilled
